system: T1, Recombinant purified human PD-1 protein, residues Leu25-Thr168, with a C-terminal 6-His tag (Homo sapiens, UniProt Q15116)
T1 construct: programmed cell death protein 1 (PD-1), human, residues Leu25-Thr168; also called programmed cell death protein 1; PD-1-His monomer; source: bought: R&D Systems (catalog# 8986-PD, lot# DDJM0417041)
T1 sequence (Q15116 25-168): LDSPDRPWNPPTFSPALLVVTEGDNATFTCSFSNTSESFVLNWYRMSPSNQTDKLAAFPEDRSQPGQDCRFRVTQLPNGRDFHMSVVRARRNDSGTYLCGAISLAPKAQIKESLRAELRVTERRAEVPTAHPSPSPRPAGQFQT
assaySummary: SPR; Biacore 8K, CM5 chip (3D-hydrogel); mAb captured on amine-coupled goat anti-human IgG Fc, PD-1-His monomer as analyte (100 nM top, 3-fold dilutions), 1200 s dissociation; 25 C, HBS-EP+ pH 7.4; 1:1 Langmuir fit, apparent constants
conditionNotes: both partners purified
readoutType: log10 Kd (log10 of the value in nM)

[
  {
    "binder": "mAb03 (antibody, V domains shown, IgG4; also called analog of tislelizumab; tisle; source: HEK293 suspension cells, cotransfected, purified (Protein A)) VH: QVQLQESGPGLVKPSETLSLTCTVSGFSLTSYGVHWIRQPPGKGLEWIGVIYADGSTNYNPSLKSRVTISKDTSKNQVSLKLSSVTAADTAVYYCARAYGNYWYIDVWGQGTTVTVSS VL: DIVMTQSPDSLAVSLGERATINCKSSESVSNDVAWYQQKPGQPPKLLINYAFHRFTGVPDRFSGSGYGTDFTLTISSLQAEDVAVYYCHQAYSSPYTFGQGTKLEIK",
    "numericReadout": -0.56
  },
  {
    "binder": "mAb23 (antibody, V domains shown, IgG4; also called analog of cemiplimab; cemip; source: HEK293 suspension cells, cotransfected, purified (Protein A)) VH: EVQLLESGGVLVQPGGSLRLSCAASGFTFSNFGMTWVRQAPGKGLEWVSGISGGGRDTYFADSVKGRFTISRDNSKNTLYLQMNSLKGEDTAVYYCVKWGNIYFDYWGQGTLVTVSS VL: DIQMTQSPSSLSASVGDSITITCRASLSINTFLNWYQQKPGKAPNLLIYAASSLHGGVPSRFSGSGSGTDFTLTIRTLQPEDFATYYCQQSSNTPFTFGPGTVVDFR",
    "numericReadout": 0.24
  },
  {
    "binder": "mAb16 (antibody, V domains shown, IgG4; also called analog of dostarlimab; dostar; source: HEK293 suspension cells, cotransfected, purified (Protein A)) VH: EVQLLESGGGLVQPGGSLRLSCAASGFTFSSYDMSWVRQAPGKGLEWVSTISGGGSYTYYQDSVKGRFTISRDNSKNTLYLQMNSLRAEDTAVYYCASPYYAMDYWGQGTTVTVSS VL: DIQLTQSPSFLSAYVGDRVTITCKASQDVGTAVAWYQQKPGKAPKLLIYWASTLHTGVPSRFSGSGSGTEFTLTISSLQPEDFATYYCQHYSSYPWTFGQGTKLEIK",
    "numericReadout": 0.25
  },
  {
    "binder": "mAb04 (antibody, V domains shown, IgG4; also called analog of retifanlimab; retifan; source: HEK293 suspension cells, cotransfected, purified (Protein A)) VH: QVQLVQSGAEVKKPGASVKVSCKASGYSFTSYWMNWVRQAPGQGLEWIGVIHPSDSETWLDQKFKDRVTITVDKSTSTAYMELSSLRSEDTAVYYCAREHYGTSPFAYWGQGTLVTVSS VL: EIVLTQSPATLSLSPGERATLSCRASESVDNYGMSFMNWFQQKPGQPPKLLIHAASNQGSGVPSRFSGSGSGTDFTLTISSLEPEDFAVYFCQQSKEVPYTFGGGTKVEIK",
    "numericReadout": -0.14
  },
  {
    "binder": "mAb17 (antibody, V domains shown, IgG4; also called analog of camrelizumab; camre; source: HEK293 suspension cells, cotransfected, purified (Protein A)) VH: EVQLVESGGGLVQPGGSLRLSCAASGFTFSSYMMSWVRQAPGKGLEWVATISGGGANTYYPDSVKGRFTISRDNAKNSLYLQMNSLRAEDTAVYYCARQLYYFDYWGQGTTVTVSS VL: DIQMTQSPSSLSASVGDRVTITCLASQTIGTWLTWYQQKPGKAPKLLIYTATSLADGVPSRFSGSGSGTDFTLTISSLQPEDFATYYCQQVYSIPWTFGGGTKVEIK",
    "numericReadout": 0.70
  }
]
